Test system: Opioid receptors; mu & delta
Measurement Protocol: Ratio of activity of mu opioid receptor from guinea pig ileum (GPI) to that of delta opioid receptor from mouse vas deferens (MVD)
Type: tissue-based
Test Readout: Ratio
Answers are plain numbers.

C[C@@H](NC(=O)[C@@H](N)Cc1ccc(O)cc1)C(=O)NCC(=O)N[C@@H](Cc1cccc2ccccc12)C(=O)NNC(=O)[C@H](Cc1cccc2ccccc12)NC(=O)CNC(=O)[C@@H](C)NC(=O)[C@@H](N)Cc1ccc(O)cc1 = 0.1

# return Ratio for each item in the list
1. C[C@@H](NC(=O)[C@@H](N)Cc1ccc(O)cc1)C(=O)NCC(=O)N[C@@H](Cc1ccc2ccccc2c1)C(=O)NNC(=O)[C@H](Cc1ccc2ccccc2c1)NC(=O)CNC(=O)[C@@H](C)NC(=O)[C@@H](N)Cc1ccc(O)cc1
2. C[C@@H](NC(=O)[C@@H](N)Cc1ccc(O)cc1)C(=O)NCC(=O)N[C@@H](Cc1c(F)c(F)c(F)c(F)c1F)C(=O)NNC(=O)[C@H](Cc1c(F)c(F)c(F)c(F)c1F)NC(=O)CNC(=O)[C@@H](C)NC(=O)[C@@H](N)Cc1ccc(O)cc1
3. CC(NC(=O)[C@@H](N)Cc1ccc(O)cc1)C(=O)NCC(=O)N[C@H](C(=O)NNC(=O)[C@@H](NC(=O)CNC(=O)C(C)NC(=O)[C@@H](N)Cc1ccc(O)cc1)[C@@H](C)c1ccccc1)[C@@H](C)c1ccccc1 (single isomer, unassigned)

Out:
1: 0.24; 2: 0.36; 3: 0.34

In: Notebook entry, Opioid receptors; mu & delta assay: Ratio of C[C@H](c1ccccc1)[C@H](NC(=O)CNC(=O)[C@@H](C)NC(=O)[C@@H](N)Cc1ccc(O)cc1)C(=O)NNC(=O)[C@@H](NC(=O)CNC(=O)[C@@H](C)NC(=O)[C@@H](N)Cc1ccc(O)cc1)[C@H](C)c1ccccc1 (stereo in doubt) = ?
Out: 0.12
